# TEST SYSTEM: T1, human NT5E expressed on MDA-MB-231 cells (human, UniProt P21589 27-549)
# T1 construct: whole, on cells; also called NT5E-expressing MDA-MB-231 cells; CD73
# T1 sequence (looked up): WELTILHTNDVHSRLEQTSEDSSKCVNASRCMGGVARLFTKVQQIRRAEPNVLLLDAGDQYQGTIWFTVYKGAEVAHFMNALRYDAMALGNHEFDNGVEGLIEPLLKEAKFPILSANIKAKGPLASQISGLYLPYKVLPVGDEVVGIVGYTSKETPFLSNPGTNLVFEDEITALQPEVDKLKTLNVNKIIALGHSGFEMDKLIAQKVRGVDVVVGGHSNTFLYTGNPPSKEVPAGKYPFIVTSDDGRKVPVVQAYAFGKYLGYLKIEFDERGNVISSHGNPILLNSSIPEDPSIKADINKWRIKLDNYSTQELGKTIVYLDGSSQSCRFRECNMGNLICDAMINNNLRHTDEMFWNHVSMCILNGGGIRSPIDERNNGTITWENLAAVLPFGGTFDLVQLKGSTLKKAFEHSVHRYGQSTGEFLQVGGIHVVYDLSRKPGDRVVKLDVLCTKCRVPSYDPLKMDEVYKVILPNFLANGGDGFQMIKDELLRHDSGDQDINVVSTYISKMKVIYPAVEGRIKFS
# ASSAY EXPLANATION: flow cytometry on MDA-MB-231 cells, 1 mM ATP
Give measured EC50 for each item. Keep answers brief.
Give bare numbers, in nM.

[[record]]
binder = "1780 IgG (antibody, V domains shown) VH: EVQLVESGGGLVQPGGSLRLSCAASGFNFYSYSIHWVRQAPGKGLEWVASISSSSGYTYYADSVKGRFTISADTSKNTAYLQMNSLRAEDTAVYYCARYSWWGWHMEGWWGYMNAFDYWGQGTLVTVSS VL: DIQMTQSPSSLSASVGDRVTITCRASQSVSSAVAWYQQKPGKAPKLLIYSASSLYSGVPSRFSGSRSGTDFTLTISSLQPEDFATYYCQQAHPKPITFGQGTKVEIKR"
assay_metric = "EC50"
unit_of_measure = "nM"
recorded_number = 28

[[record]]
binder = "1780 Fab (Fab, V domains shown) VH: EVQLVESGGGLVQPGGSLRLSCAASGFNFYSYSIHWVRQAPGKGLEWVASISSSSGYTYYADSVKGRFTISADTSKNTAYLQMNSLRAEDTAVYYCARYSWWGWHMEGWWGYMNAFDYWGQGTLVTV VL: DIQMTQSPSSLSASVGDRVTITCRASQSVSSAVAWYQQKPGKAPKLLIYSASSLYSGVPSRFSGSRSGTDFTLTISSLQPEDFATYYCQQAHPKPITFGQGTKVEIKR"
assay_metric = "EC50"
unit_of_measure = "nM"
recorded_number = 37

[[record]]
binder = "1789 IgG (antibody, V domains shown) VH: EVQLVESGGGLVQPGGSLRLSCAASGFNVSYSSIHWVRQAPGKGLEWVASISSSSGYTYYADSVKGRFTISADTSKNTAYLQMNSLRAEDTAVYYCARNYWGWYPFYYFAFDYWGQGTLVTVSS VL: DIQMTQSPSSLSASVGDRVTITCRASQSVSSAVAWYQQKPGKAPKLLIYSASSLYSGVPSRFSGSRSGTDFTLTISSLQPEDFATYYCQQGWDYPITFGQGTKVEIKR"
assay_metric = "EC50"
unit_of_measure = "nM"
recorded_number = 9.4


API: the following record is the query input.
Exam item: So what does the record say about EC50 for 1789 Fab (Fab, V domains shown) VH: EVQLVESGGGLVQPGGSLRLSCAASGFNVSYSSIHWVRQAPGKGLEWVASISSSSGYTYYADSVKGRFTISADTSKNTAYLQMNSLRAEDTAVYYCARNYWGWYPFYYFAFDYWGQGTLVTV VL: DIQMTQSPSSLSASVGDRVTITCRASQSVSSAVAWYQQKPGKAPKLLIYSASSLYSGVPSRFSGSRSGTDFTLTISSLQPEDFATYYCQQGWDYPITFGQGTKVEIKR ?
Marked response: 53
